System: PAK2;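 further: KINOMEscan scanMAX binding as percent activity remaining versus control; lower means stronger binding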
Details: Compound Concentration (nM):1000
ASSAY READOUT: Percent Control (%)
Output spec: scalar in %, unitless text.

Would you please look over these solved cases?
1) CN(C)CCNC(=O)Nc1ccc(N(C)c2ccnc(Nc3ccc(CS(C)(=O)=O)cc3)n2)cc1.Cl [GW830900A]; 79
2) COc1cc(C=NNc2ncnc3c2cnn3-c2ccccc2)ccc1O [GW513184X]; 100
3) COc1cc(/C=N/Nc2ncnc3[nH]ncc23)ccc1O [GW578748X]; 97
4) NS(=O)(=O)c1ccc(N/N=C2\C(=O)Nc3ccc(Cl)cc32)cc1 [GW280670X]; 100
5) COc1cccc(-n2ncc3c(N/N=C/c4ccncc4)ncnc32)c1 [GW784752X]; 100
6) COc1cc2ncn(-c3cc(O[C@H](C)c4ccccc4Cl)c(C(N)=O)s3)c2cc1OC [GSK237701A]; 93
7) COc1cccc(-c2c[nH]c3c(N/N=C/c4ccncc4)ncnc23)c1 [GW814408X]; 94
8) C[C@@H](Oc1cc(-n2cnc3ccc(OC4CCN(C)CC4)cc32)sc1C(N)=O)c1ccccc1Cl [GSK579289A]; 84

Shift focus to the following entry.
*Q* Param item = CCn1c(-c2nonc2N)nc2c(C#CC(C)(C)O)nc(OCCNC)cc21.Cl [GSK949675] ; retrieve measured Percent Control.
*A* 52
